Study System: EGFR (Homo sapiens, UniProt P00533)
Sequence (P00533 25-1210): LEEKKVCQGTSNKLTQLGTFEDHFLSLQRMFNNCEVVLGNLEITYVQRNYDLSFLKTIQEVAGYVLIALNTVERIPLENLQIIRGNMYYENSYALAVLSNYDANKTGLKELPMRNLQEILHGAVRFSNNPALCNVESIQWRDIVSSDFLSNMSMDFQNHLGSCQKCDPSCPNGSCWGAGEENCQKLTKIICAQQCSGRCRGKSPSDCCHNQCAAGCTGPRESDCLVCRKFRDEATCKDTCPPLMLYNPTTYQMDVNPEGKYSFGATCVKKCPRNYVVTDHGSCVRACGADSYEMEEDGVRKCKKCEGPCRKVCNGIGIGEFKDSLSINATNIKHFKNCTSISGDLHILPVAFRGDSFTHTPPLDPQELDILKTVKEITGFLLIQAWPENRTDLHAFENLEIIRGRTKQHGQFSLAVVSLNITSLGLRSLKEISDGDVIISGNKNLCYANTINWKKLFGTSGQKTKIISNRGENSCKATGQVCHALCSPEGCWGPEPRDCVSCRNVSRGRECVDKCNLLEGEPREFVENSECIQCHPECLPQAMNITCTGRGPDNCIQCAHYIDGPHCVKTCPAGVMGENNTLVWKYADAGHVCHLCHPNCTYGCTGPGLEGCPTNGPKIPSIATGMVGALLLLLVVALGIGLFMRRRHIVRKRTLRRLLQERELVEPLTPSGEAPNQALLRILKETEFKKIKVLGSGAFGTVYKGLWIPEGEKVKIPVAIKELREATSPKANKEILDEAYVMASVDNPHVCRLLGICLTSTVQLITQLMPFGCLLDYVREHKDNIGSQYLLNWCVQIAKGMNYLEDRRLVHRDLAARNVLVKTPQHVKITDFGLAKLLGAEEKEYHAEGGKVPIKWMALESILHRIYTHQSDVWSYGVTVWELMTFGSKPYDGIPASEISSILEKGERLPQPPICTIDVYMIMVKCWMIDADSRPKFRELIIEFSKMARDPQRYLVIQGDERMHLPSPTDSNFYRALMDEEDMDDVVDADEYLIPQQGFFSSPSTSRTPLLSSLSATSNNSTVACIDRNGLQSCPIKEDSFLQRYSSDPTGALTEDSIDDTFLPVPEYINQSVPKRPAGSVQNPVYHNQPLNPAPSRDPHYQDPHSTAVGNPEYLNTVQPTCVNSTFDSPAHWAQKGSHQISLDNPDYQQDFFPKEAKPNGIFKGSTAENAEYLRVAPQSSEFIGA
Below, each entry is listed alongside its reported IC50.
Respond numerically; units are µM and should not be typed.

Guide cases for IC50, answers given:
{"Molecule": "CC(Nc1nc2ccccc2c(=O)n1N)C(O)c1ccccc1 (stereo not drawn)", "Measured": 3.87}
{"Molecule": "Nn1c(O)nc2ccccc2c1=O [Compound 12, 3-Amino-2-hydroxyquinazolin-4(3H)-one]", "Measured": 7.39}

// switching to the query molecule
Which measured IC50 belongs to CC1C(c2ccccc2)Oc2nc3ccccc3c(=O)n21 (stereo not drawn) , tested on EGFR (Homo sapiens, UniProt P00533)? 1.09

* * *

System: MDA-MB-231, MCF-7, HCT-116, HepG-2
Experiment Summary: Radiosensitizing evaluation, all tested cell lines
Type: cell-based
Setup Conditions: Homo sapiens, light or radiation study; single dose of 8 Gy gamma radiation; read-out: IC50 on all the tested cell lines after irradiation
Recorded Endpoint: IC50

Consider the compound CSc1nc2ccccc2c(=O)n1C(C)C(O)c1ccccc1 (stereo not shown) [Compound 5] and give its measured IC50. < 5 µM
